Source listed as ChEMBL document CHEMBL1201862.

Test system: M14
Assay: NCI tumour cell line growth inhibition, 48 h
Activity calls are given as the source filed them. Cut-off read from the data, not from the text of the source: active = GI50 up to about 1.1 µM and inactive = higher.
Please answer using one outcome listed in class 1 (active), class 0 (inactive)

[
  {
    "Molecule": "Cc1nc2nn[nH]n2c(=O)c1CCO",
    "Category": "class 0"
  },
  {
    "Molecule": "CN1CCN(C(=S)N(C(=O)c2ccc(Cl)cc2)C2CCCCC2)CC1",
    "Category": "class 0"
  }
]

Req: Could you kindly confirm the outcome this assay logged for `CC(C)(C)[C@H]1CO[C@]2(c3ccccc3)[C@@H]3C[C@@H]3C(=O)N12` ?
Resp: class 0

Req: Could you kindly confirm the outcome this assay logged for `COc1cc(CCc2ccc(N)cc2)cc(OC)c1OC` ?
Resp: class 0

Req: Could you kindly confirm the outcome this assay logged for `CC1=C(C(=O)Nc2ccccc2C)C(c2ccccc2)C(C(=O)Nc2ccccc2C)=C(C)N1` ?
Resp: class 0

Req: Could you kindly confirm the outcome this assay logged for `O=[N+]([O-])c1ccc(CNC2=NNS(=O)(=O)c3ccccc32)cc1` ?
Resp: class 0

Req: Could you kindly confirm the outcome this assay logged for `c1csc(-c2cscc2-c2cccs2)c1` ?
Resp: class 0

Req: Could you kindly confirm the outcome this assay logged for `O=C(Nc1cc2cc([N+](=O)[O-])ccc2oc1=O)c1cccs1` ?
Resp: class 0

Req: Could you kindly confirm the outcome this assay logged for `CN(Cc1c[n+]([O-])c2nc(N)nc(N)c2n1)c1ccc(C(=O)NC23CC4CC(CC(C4)C2)C3)cc1` ?
Resp: class 0

Req: Could you kindly confirm the outcome this assay logged for `C[C@]1(O)CC(=O)c2c(c(-c3ccc4cc5c(c(O)c4c3O)C(=O)C[C@@](C)(O)C5)c3cccc(O)c3c2O)C1` ?
Resp: class 0

Req: Could you kindly confirm the outcome this assay logged for C1CCN2CC3CCCN4CCCC(C2C1)C34 (configuration not stated) ?
Resp: class 0

Req: Could you kindly confirm the outcome this assay logged for `Cc1ccccc1NC(=O)c1ccc([N+](=O)[O-])cc1` ?
Resp: class 0

Req: Could you kindly confirm the outcome this assay logged for CC[C@@]1(OC(=O)C(N)CCC(=O)O)C(=O)OCc2c1cc1n(c2=O)Cc2cc3ccccc3nc2-1 (some centres not stated) ?
Resp: class 1

Req: Could you kindly confirm the outcome this assay logged for COc1cccc(C2CC(C)(O)Oc3cc4c(cc32)OCO4)c1O (configuration not stated) ?
Resp: class 0

Req: Could you kindly confirm the outcome this assay logged for NC(C(=O)O)C(N)C(=O)O (configuration not stated) ?
Resp: class 0

Req: Could you kindly confirm the outcome this assay logged for CCOC(=O)C(Cc1ccc(OC(=O)OC(C)(C)C)cc1)NC(=O)OC(C)(C)C (configuration not stated) ?
Resp: class 0

Req: Could you kindly confirm the outcome this assay logged for `CNc1cccnc1/C=N/N=C(/N)S` ?
Resp: class 0

Req: Could you kindly confirm the outcome this assay logged for `N#Cc1c(N)c(C#N)c2c(c1-c1ccc(Cl)cc1)COc1ccccc1-2` ?
Resp: class 0

----------
System: DLD-1
Assay: NCI tumour cell line growth inhibition, 48 h
The source made the active and inactive calls. Cut-off read from the data, not from the text of the source: active = GI50 up to about 1.1 µM and inactive = higher.
Property Name: GI50

Would you please look over these solved cases?
[
  {
    "Compound": "CCOCC(=O)N(C)c1cccc2c3c(n(C)c12)CCCCC3",
    "Property Name": "GI50",
    "Measured": "> 100 µM (inactive)"
  },
  {
    "Compound": "COc1cc(CCc2ccc(N)cc2)cc(OC)c1OC",
    "Property Name": "GI50",
    "Measured": "> 100 µM (inactive)"
  }
]

Attention now shifts to the item below.
Req: # return recorded GI50 for entry CN(CN1C(=O)C2Cc3ccccc3CN2C1=O)c1ccccn1 (stereo not drawn)
Resp: > 100 µM (inactive)
